assay-target: human vanilloid receptor VR-1 (hVR1) (Homo sapiens)
Construct: expressed in transfected cells; host or cells: HEK293 Tet-on cells (hVR1-HEK293), expression induced with doxycycline
test-protocol: Calcium influx test of vanilloid receptor (capsaicin-induced, Fluo-3/AM, hVR1-HEK293 cells)
Format: cell-based
cond: single concentration of compound 200 nM, 1 μM capsaicin, read-out: Inhibitory effect (%) on calcium influx
property: inhibition at 0.2 µM
Please answer using the number first and the unit second.

Worked examples follow.
C=Cc1cnc(-c2ccc(-c3nc4ccc(C(C)(C)C)cc4[nH]3)cc2)c(Cl)c1 :: 11.7%
O=Cc1cnc(-c2ccc(-c3nc4ccc(C(F)(F)F)cc4[nH]3)cc2)c(Cl)c1 :: 39.1%
OCc1cnc(-c2ccc(-c3nc4c(Br)cc(C(F)(F)F)cc4[nH]3)cc2)c(Cl)c1 :: 6%

Now consider a different molecule.
input: Please look up its inhibition at 0.2 µM: COC(=O)c1cnc(-c2ccc(-c3nc4c(Br)cc(C(F)(F)F)cc4[nH]3)nc2)c(Cl)c1
output: 48.9%

----------
Listing of entries alongside the reported inhibition at 0.2 µM.
assay-target: human vanilloid receptor VR-1 (hVR1) (Homo sapiens)
Construct: expressed in transfected cells; host or cells: HEK293 Tet-on cells (hVR1-HEK293), expression induced with doxycycline
test-protocol: Calcium influx test of vanilloid receptor (capsaicin-induced, Fluo-3/AM, hVR1-HEK293 cells)
Type: cell-based
cond: single concentration of compound 200 nM, 1 μM capsaicin, read-out: Inhibitory effect (%) on calcium influx
Write the answer as a number in %, unit excluded.

Worked examples follow.
CC(C)(C)c1ccc2nc(-c3ccc(-c4ncc(C(=O)O)cc4Cl)cn3)[nH]c2c1 :: 6.7
O=C(O)c1cnc(-c2ccc(-c3nc4c(Br)cc(C(F)(F)F)cc4[nH]3)cc2)c(Cl)c1 :: 5.7

input: Please state recorded inhibition at 0.2 µM (tested on human vanilloid receptor VR-1 (hVR1) (Homo sapiens)) of OCc1cnc(-c2ccc(-c3nc4ccc(C(F)(F)F)cc4[nH]3)cc2)c(Cl)c1
output: 2.8

input: Please state recorded inhibition at 0.2 µM (tested on human vanilloid receptor VR-1 (hVR1) (Homo sapiens)) of CCNC(=O)c1cnc(-c2ccc(-c3nc4ncc(Br)cc4[nH]3)nc2)c(Cl)c1
output: 13

----------
assay-target: human vanilloid receptor VR-1 (hVR1) (Homo sapiens)
Construct: expressed in transfected cells; host or cells: HEK293 Tet-on cells (hVR1-HEK293), expression induced with doxycycline
test-protocol: Calcium influx test of vanilloid receptor (capsaicin-induced, Fluo-3/AM, hVR1-HEK293 cells)
Type: cell-based
cond: single concentration of compound 200 nM, 1 μM capsaicin, read-out: Inhibitory effect (%) on calcium influx
# label = Satisfied if inhibition at 0.2 µM >= 20% else Not satisfied

The examples below pair each entry with its known result.
OCc1cnc(-c2ccc(-c3nc4c(Br)cc(Br)cc4[nH]3)nc2)c(Cl)c1 [Compound 94] :: Not satisfied
CN1CCN(c2ccc3nc(-c4ccc(-c5ncc(CO)cc5Cl)cn4)[nH]c3c2)CC1 [Compound 88] :: Not satisfied
OCc1cnc(-c2ccc(-c3nc4ccc(N5CCOCC5)cc4[nH]3)nc2)c(Cl)c1 [Compound 87] :: Not satisfied
Clc1cc(CBr)cnc1-c1ccc(-c2nc3ccc(Br)cc3[nH]2)cc1 [Compound 36] :: Not satisfied
CCNC(=O)c1cnc(-c2ccc(-c3nc4ccc(Br)cc4[nH]3)cc2)c(Cl)c1 [Compound 63] :: Satisfied

input: Determine whether this molecule has inhibition at 0.2 µM no lower than 20%: OCc1cnc(-c2ccc(-c3nc4ncc(Br)cc4[nH]3)nc2)c(Cl)c1 [Compound 92]
output: Not satisfied

input: Determine whether this molecule has inhibition at 0.2 µM no lower than 20%: OCc1cnc(-c2ccc(-c3nc4ccc(Br)cc4[nH]3)cc2)c(Cl)c1 [Compound 30]
output: Satisfied

input: Determine whether this molecule has inhibition at 0.2 µM no lower than 20%: CCNC(=O)c1cnc(-c2ccc(-c3nc4c(Br)cc(C(F)(F)F)cc4[nH]3)nc2)c(Cl)c1 [Compound 101]
output: Not satisfied

----------
assay-target: human vanilloid receptor VR-1 (hVR1) (Homo sapiens, UniProt Q8NER1)
Construct: expressed in transfected cells; host or cells: HEK293 Tet-on cells (hVR1-HEK293), expression induced with doxycycline
Sequence (Q8NER1 whole entry): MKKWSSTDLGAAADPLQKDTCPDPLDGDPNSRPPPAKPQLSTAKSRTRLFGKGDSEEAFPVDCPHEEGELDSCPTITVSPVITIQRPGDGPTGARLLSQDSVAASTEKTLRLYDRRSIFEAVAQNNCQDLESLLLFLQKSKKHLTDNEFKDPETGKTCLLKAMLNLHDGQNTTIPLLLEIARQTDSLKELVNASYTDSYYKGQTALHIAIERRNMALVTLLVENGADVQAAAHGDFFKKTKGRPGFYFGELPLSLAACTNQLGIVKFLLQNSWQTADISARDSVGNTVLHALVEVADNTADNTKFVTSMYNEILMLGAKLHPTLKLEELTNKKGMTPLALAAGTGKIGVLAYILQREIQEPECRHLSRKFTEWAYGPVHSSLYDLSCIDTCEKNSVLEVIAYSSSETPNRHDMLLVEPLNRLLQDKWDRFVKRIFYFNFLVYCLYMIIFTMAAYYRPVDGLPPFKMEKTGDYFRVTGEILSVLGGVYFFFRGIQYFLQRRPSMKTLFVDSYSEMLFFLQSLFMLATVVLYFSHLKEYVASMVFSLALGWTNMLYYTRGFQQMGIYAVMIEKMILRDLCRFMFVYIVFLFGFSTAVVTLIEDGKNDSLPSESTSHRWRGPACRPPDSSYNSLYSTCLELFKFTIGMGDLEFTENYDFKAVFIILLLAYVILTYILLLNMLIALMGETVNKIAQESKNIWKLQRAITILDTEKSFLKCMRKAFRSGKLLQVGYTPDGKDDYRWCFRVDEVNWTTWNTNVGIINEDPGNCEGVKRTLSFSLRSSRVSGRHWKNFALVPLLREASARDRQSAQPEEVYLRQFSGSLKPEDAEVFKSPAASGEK
test-protocol: Calcium influx test of vanilloid receptor (capsaicin-induced, Fluo-3/AM, hVR1-HEK293 cells)
Format: cell-based
cond: single concentration of compound 200 nM, 1 μM capsaicin, read-out: Inhibitory effect (%) on calcium influx
property: inhibition at 0.2 µM (%)
Write the answer as a number in %, unit excluded.

Worked examples follow.
CN1CCN(c2ccc3nc(-c4ccc(-c5ncc(C(=O)O)cc5Cl)cn4)[nH]c3c2)CC1 :: -5
CC(C)(C)c1ccc2nc(-c3ccc(-c4ncc(CBr)cc4Cl)cc3)[nH]c2c1 :: 59.6
OCc1cnc(-c2ccc(-c3nc4c(Br)cc(Br)cc4[nH]3)cc2)c(Cl)c1 :: 4.7
COC(=O)c1cnc(-c2ccc(-c3nc4ncc(Br)cc4[nH]3)nc2)c(Cl)c1 :: 7
CC(C)(C)c1ccc2nc(-c3ccc(-c4ncc(CO)cc4Cl)cc3)[nH]c2c1 :: 74.8
O=C(O)c1cnc(-c2ccc(-c3nc4ncc(Br)cc4[nH]3)cc2)c(Cl)c1 :: 7.2
CCNC(=O)c1cnc(-c2ccc(-c3nc4c(Br)cc(C(F)(F)F)cc4[nH]3)cc2)c(Cl)c1 :: 30.9

Now consider a different compound.
input: Please look up its inhibition at 0.2 µM: CCNC(=O)c1cnc(-c2ccc(-c3nc4ccc(C(C)(C)C)cc4[nH]3)cc2)c(Cl)c1
output: 54.3

----------
assay-target: human vanilloid receptor VR-1 (hVR1) (Homo sapiens)
Construct: expressed in transfected cells; host or cells: HEK293 Tet-on cells (hVR1-HEK293), expression induced with doxycycline
test-protocol: Calcium influx test of vanilloid receptor (capsaicin-induced, Fluo-3/AM, hVR1-HEK293 cells)
Type: cell-based
cond: calcium influx induced by 1 μM capsaicin, read-out: Inhibitory effect IC50 (nM) on calcium influx
Kindly apply the following: YES if IC50 is less than 60 nM, NO in every other case.

The examples below pair each entry with its known result.
COC(=O)c1cnc(-c2ccc(-c3nc4ccc(C(F)(F)F)cc4[nH]3)cc2)c(Cl)c1 [Compound 48] :: YES
CCNC(=O)c1cnc(-c2ccc(-c3nc4ccc(C(C)(C)C)cc4[nH]3)cc2)c(Cl)c1 [Compound 62] :: NO
COC(=O)c1cnc(-c2ccc(-c3nc4ccc(Br)cc4[nH]3)cc2)c(Cl)c1 [Compound 50] :: NO

input: I wonder whether CC(C)(C)c1ccc2nc(-c3ccc(-c4ncc(CO)cc4Cl)cn3)[nH]c2c1 [Compound 90] has IC50 below 60 nM. Can you tell?
output: NO

input: I wonder whether COC(=O)c1cnc(-c2ccc(-c3nc4ccc(C(C)(C)C)cc4[nH]3)nc2)c(Cl)c1 [Compound 74] has IC50 below 60 nM. Can you tell?
output: YES

input: I wonder whether CC(=O)OCc1cnc(-c2ccc(-c3nc4ccc(C(F)(F)F)cc4[nH]3)cc2)c(Cl)c1 [Compound 53] has IC50 below 60 nM. Can you tell?
output: NO

input: I wonder whether OCc1cnc(-c2ccc(-c3nc4ccc(C(F)(F)F)cc4[nH]3)cc2)c(Cl)c1 [Compound 28] has IC50 below 60 nM. Can you tell?
output: NO

----------
assay-target: human vanilloid receptor VR-1 (hVR1) (Homo sapiens)
Construct: expressed in transfected cells; host or cells: HEK293 Tet-on cells (hVR1-HEK293), expression induced with doxycycline
test-protocol: Calcium influx test of vanilloid receptor (capsaicin-induced, Fluo-3/AM, hVR1-HEK293 cells)
Assay type: cell-based
cond: single concentration of compound 200 nM, 1 μM capsaicin, read-out: Inhibitory effect (%) on calcium influx
property: inhibition at 0.2 µM (%)
Write the answer as a number in %, unit excluded.

Worked examples follow.
C=Cc1cnc(-c2ccc(-c3nc4ccc(C(C)(C)C)cc4[nH]3)nc2)c(Cl)c1 :: -8.8
FC(F)(F)c1ccc2nc(-c3ccc(-c4ncc(CBr)cc4Cl)cc3)[nH]c2c1 :: 13
CC(=O)OCc1cnc(-c2ccc(-c3nc4ccc(C(F)(F)F)cc4[nH]3)cc2)c(Cl)c1 :: 37.4

Now consider a different compound.
input: Please look up its inhibition at 0.2 µM: COC(=O)c1cnc(-c2ccc(-c3nc4ccc(N5CCOCC5)cc4[nH]3)nc2)c(Cl)c1
output: 7.1
